System Name: human androgen receptor (AR) (Homo sapiens, UniProt P10275)
Construct: expressed in transfected cells; host or cells: mouse myoblast C2C12 cells, transiently co-transfected with FuGENE
Sequence (P10275 1-920): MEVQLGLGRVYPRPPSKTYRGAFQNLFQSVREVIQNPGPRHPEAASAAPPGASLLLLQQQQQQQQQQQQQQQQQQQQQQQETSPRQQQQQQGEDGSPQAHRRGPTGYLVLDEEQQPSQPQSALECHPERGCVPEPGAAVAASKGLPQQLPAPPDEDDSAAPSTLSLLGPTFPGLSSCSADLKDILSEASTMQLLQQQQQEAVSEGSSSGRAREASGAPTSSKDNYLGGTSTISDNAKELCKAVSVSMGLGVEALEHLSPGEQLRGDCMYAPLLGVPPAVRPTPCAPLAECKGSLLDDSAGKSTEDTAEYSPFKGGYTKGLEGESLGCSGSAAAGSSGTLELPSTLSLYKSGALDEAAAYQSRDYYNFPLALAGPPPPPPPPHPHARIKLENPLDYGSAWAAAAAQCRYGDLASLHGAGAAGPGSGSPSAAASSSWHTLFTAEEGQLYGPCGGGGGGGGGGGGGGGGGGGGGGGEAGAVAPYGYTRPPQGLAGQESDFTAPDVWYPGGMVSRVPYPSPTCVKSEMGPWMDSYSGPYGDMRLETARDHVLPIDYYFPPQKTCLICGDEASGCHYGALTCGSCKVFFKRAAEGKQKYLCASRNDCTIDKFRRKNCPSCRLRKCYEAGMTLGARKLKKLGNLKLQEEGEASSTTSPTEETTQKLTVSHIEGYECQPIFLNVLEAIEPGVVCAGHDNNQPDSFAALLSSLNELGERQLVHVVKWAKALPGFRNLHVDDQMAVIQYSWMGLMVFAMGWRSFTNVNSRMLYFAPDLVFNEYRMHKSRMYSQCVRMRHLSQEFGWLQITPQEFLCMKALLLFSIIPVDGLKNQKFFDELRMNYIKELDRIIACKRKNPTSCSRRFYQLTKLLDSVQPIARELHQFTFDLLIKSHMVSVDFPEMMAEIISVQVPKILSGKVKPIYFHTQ
Method Summary: C2C12 AR/ARE reporter assay
Format: cell-based
Condition Info: mouse myoblast C2C12 cells, luciferase reporter, 48 h; average; read-out: C2C12 EC50
Measured Quantity: EC50 (nM)

{"columns": ["Compound", "Value"],
 "data": [
  ["CC1(c2ccc3c(c2)OCO3)CCCN1c1ccc(C#N)c(C(F)(F)F)c1 (stereo not shown)", 516]
]}

* * *

System Name: human androgen receptor (AR) (Homo sapiens, UniProt P10275)
Construct: expressed in transfected cells; host or cells: mouse myoblast C2C12 cells, transiently co-transfected with FuGENE
Method Summary: C2C12 AR/ARE reporter assay
Assay type: cell-based
Condition Info: versus maximum stimulation obtained with 10 nM methyltrienolone; average
As shown below, each of these compounds has a reported C2C12 % Efficacy value.

{"columns": ["Compound", "C2C12 % Efficacy, %"],
 "data": [
  ["CCC1CCC(c2ccccc2)N1c1ccc(C#N)c(Cl)c1 (single isomer, unassigned) [Example 22b]", 80.6],
  ["CCC1CCC(c2ccccc2)N1c1ccc(C#N)c(Cl)c1 (single isomer, unassigned) [Example 22c]", 61.3],
  ["CCC1CCC(c2ccccc2)N1c1ccc(C#N)c(Cl)c1 (single isomer, unassigned) [Example 22d]", 66.5],
  ["CCC1CCC(c2ccccc2)N1c1ccc(C#N)c(Cl)c1 (single isomer, unassigned) [Example 22a]", 92.4]
]}
